# key: entry, value: EC50
- MEASUREMENT TARGET: Glutamate NMDA receptor; Grin1/Grin2c (Rattus norvegicus, UniProt P35439+Q00961)
- Sequence (Q00961 whole entry, other chains not shown): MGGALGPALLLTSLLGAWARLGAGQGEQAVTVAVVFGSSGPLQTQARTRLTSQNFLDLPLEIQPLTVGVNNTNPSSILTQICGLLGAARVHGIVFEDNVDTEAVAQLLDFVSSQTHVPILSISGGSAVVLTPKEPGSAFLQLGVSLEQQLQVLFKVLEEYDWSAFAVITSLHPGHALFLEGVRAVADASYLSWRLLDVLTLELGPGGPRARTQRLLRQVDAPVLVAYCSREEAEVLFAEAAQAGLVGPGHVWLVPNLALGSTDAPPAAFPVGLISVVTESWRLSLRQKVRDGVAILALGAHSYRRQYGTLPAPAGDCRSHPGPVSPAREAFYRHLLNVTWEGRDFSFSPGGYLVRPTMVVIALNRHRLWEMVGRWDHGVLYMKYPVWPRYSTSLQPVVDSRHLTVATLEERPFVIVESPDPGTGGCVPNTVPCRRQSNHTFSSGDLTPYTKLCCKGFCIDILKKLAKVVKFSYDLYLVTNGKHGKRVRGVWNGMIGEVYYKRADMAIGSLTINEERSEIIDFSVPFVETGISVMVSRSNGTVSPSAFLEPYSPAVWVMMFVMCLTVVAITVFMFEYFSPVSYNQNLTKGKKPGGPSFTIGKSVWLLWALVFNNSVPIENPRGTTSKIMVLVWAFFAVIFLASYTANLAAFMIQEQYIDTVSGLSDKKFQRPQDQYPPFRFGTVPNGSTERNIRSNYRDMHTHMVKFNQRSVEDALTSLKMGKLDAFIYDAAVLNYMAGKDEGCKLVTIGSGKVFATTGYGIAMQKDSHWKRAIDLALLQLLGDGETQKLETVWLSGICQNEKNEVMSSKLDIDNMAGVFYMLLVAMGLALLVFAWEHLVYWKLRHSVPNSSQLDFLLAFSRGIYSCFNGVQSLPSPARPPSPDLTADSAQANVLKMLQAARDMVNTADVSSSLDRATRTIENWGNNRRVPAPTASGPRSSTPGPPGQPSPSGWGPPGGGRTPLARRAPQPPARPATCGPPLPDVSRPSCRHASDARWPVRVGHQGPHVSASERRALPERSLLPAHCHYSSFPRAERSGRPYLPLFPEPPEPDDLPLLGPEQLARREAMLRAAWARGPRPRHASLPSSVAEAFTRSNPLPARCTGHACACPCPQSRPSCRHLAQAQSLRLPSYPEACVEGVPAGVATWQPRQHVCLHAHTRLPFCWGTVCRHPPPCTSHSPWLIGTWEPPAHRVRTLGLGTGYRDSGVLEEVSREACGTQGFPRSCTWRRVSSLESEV
- ASSAY INFO: Activity at rat recombinant GluN1/GluN2C receptor assessed as potentiation of glycine/glutamate-induced activation by two-electrode voltage clamp technique

{"columns": ["MOLECULE", "EC50 / nM"],
 "data": [
  ["COc1ccc(/C=C/C2c3ccc(OC)cc3CCN2C(=O)c2cccc(Cl)c2)cc1 (racemic)", 1000],
  ["COc1ccc(OCC2c3cc(C)c(C)cc3CCN2C(=O)c2cccc(Cl)c2)cc1 (racemic)", 1400],
  ["COc1ccc(/C=C/C2c3ccc(OC)cc3CCN2C(=O)c2cccc(Br)c2)cc1 (racemic)", 1500]
]}

* * *

Items are presented alongside their recorded pEC50.
- MEASUREMENT TARGET: Ionotropic glutamate receptor NMDA 1/2D (Rattus norvegicus, UniProt P35439+Q62645)
- Sequence (Q62645 whole entry, other chains not shown): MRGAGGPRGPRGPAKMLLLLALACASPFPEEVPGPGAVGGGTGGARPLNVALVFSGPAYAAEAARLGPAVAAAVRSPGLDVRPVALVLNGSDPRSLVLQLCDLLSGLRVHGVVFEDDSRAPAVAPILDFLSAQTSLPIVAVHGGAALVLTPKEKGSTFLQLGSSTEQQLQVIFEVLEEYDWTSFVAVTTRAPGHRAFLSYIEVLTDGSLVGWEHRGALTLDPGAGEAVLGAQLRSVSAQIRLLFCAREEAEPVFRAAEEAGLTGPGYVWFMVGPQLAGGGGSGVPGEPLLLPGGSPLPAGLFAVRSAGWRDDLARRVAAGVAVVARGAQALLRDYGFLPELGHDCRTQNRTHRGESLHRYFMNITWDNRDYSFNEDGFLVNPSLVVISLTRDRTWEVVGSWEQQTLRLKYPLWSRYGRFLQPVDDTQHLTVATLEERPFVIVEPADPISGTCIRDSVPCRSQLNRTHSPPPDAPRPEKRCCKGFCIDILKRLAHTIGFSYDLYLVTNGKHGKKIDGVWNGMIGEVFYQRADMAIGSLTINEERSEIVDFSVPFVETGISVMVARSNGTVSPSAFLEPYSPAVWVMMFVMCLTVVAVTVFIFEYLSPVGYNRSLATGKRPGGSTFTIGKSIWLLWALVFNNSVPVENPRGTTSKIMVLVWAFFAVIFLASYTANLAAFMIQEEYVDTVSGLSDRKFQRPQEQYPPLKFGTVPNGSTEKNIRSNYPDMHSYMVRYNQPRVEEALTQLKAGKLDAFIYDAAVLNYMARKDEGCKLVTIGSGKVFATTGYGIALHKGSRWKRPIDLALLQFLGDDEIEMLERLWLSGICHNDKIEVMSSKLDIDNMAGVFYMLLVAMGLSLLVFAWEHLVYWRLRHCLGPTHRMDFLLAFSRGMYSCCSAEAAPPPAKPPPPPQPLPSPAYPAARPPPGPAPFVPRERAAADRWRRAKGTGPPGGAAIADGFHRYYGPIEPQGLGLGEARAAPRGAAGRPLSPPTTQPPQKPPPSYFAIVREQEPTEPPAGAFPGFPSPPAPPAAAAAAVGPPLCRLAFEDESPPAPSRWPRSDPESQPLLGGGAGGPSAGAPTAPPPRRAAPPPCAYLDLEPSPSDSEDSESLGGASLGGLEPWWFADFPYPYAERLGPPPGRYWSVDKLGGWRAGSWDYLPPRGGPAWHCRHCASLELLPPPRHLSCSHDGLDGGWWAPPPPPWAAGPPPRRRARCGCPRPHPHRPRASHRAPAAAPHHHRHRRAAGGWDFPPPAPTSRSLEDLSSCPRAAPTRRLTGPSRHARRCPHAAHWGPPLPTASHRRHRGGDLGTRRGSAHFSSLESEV
- ASSAY INFO: Activity at rat recombinant GluN1/GluN2D receptor assessed as potentiation of glycine/glutamate-induced activation by two-electrode voltage clamp technique
pEC50: −log10 of the molar value.
MEASURED METRIC: pEC50

{"columns": ["COMPOUND", "MEASURED METRIC", "READOUT VALUE"],
 "data": [
  ["COc1ccc(OCC2c3cc(OC)c(OC)cc3CCN2C(=O)c2cccc(I)c2)cc1 (racemic)", "pEC50", 5.31],
  ["COc1ccc(OCC2c3ccc(C)cc3CCN2C(=O)c2cccc(Br)c2)cc1 (racemic)", "pEC50", 5.44],
  ["COc1cc2c(cc1OC)C(COc1ccc(SC)cc1)N(C(=O)c1cccc(Cl)c1)CC2 (racemic)", "pEC50", 5.28],
  ["COc1ccc(/C=C/C2c3cc(OC)c(OC)cc3CCN2C(=O)c2ccccc2)cc1 (racemic)", "pEC50", 4.46],
  ["COc1ccc(OCC2c3cc(OC)c(OC)cc3CCN2C(=O)c2ccc(F)c(Cl)c2)cc1 (racemic)", "pEC50", 5.28]
]}

* * *

- MEASUREMENT TARGET: Glutamate NMDA receptor; Grin1/Grin2c (Rattus norvegicus, UniProt P35439+Q00961)
- ASSAY INFO: Activity at rat recombinant GluN1/GluN2C receptor assessed as potentiation of glycine/glutamate-induced activation by two-electrode voltage clamp technique
- Type: protein-complex assay
pEC50: −log10 of the molar value.
pEC50 values for the compounds below.

{"columns": ["COMPOUND", "pEC50"],
 "data": [
  ["COc1ccc(OCC2c3cc(OC)c(OC)cc3CCN2C(=O)c2ccccc2)cc1 (racemic)", 4.92],
  ["COc1cc2c(cc1OC)C(COc1ccc(N(C)C)cc1)N(C(=O)c1cccc(Br)c1)CC2 (racemic)", 4.92],
  ["COc1ccc(OCC2c3cc(OC)c(OC)cc3CCN2C(=O)c2cccc(F)c2)cc1 (racemic)", 5.14],
  ["COc1ccc(OCC2c3c(cc(OC)cc3OC)CCN2C(=O)c2ccccc2)cc1 (racemic)", 5.00],
  ["COc1ccc(OCC2c3cc(OC)c(OC)cc3CCN2C(=O)c2cccs2)cc1 (racemic)", 5.05],
  ["COc1ccc(OCC2c3cc(OC)c(OC)cc3CCN2C(=O)c2cccc([N+](=O)[O-])c2)cc1 (racemic)", 4.96]
]}
